# assay_system: UniProt P53350
# Sequence (P53350 whole entry): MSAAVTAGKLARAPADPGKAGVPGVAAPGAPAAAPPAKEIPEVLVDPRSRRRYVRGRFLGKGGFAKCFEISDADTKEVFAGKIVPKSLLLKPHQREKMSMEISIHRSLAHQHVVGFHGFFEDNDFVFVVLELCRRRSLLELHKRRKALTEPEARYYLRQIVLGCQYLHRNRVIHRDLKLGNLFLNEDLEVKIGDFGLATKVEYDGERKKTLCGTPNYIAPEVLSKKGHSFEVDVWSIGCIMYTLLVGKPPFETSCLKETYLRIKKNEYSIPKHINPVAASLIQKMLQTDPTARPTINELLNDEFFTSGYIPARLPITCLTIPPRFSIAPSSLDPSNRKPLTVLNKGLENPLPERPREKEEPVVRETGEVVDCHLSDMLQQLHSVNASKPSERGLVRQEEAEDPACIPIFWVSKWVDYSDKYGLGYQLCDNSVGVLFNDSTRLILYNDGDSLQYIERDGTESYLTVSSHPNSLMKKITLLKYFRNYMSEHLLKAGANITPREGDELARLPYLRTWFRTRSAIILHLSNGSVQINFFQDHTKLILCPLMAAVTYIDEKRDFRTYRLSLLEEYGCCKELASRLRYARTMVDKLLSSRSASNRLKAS
# assay_remarks: 33PanQinase protein kinase activity assay
# Assay type: biochemical
# measurement_conditions: recombinant kinase, 1 µM ATP
measured_metric: IC50

Report IC50 for COc1cc(-c2nc(-c3c[nH]c4ccccc34)c[nH]c2=O)cc(OC)c1OC [Compound 5] > 100 µM

###

# assay_system: ERBB2 (Homo sapiens, UniProt P04626)
# Sequence (P04626 23-1255): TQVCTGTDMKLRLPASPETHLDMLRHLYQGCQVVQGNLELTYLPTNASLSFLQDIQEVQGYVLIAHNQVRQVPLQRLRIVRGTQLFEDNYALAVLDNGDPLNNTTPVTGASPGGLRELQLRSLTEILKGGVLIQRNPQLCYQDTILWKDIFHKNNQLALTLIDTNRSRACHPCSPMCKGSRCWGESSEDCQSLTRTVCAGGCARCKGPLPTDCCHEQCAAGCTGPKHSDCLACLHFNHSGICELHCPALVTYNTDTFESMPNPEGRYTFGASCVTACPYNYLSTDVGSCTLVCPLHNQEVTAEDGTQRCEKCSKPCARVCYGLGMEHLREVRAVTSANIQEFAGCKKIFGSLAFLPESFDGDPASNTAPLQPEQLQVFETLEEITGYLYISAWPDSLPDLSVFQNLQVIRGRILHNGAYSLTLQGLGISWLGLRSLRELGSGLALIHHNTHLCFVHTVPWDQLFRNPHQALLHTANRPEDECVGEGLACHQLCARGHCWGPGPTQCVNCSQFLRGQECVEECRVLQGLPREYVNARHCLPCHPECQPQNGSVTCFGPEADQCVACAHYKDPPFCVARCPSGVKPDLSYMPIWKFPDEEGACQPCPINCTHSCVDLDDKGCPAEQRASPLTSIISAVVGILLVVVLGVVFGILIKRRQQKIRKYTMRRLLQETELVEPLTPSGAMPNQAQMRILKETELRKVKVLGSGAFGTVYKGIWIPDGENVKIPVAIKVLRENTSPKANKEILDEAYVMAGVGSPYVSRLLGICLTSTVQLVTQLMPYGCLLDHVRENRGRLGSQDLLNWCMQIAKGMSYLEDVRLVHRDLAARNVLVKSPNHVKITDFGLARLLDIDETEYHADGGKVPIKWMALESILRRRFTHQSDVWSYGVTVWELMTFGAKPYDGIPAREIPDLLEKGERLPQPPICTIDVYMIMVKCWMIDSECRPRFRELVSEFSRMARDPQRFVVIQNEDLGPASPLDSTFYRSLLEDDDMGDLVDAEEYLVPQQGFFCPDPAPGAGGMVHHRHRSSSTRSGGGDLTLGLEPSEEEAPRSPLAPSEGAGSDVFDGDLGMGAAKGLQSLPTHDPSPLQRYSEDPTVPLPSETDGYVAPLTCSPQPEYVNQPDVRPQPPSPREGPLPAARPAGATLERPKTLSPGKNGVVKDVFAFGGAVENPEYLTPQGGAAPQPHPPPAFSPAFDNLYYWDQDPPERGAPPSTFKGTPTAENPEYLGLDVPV
# assay_remarks: 33PanQinase protein kinase activity assay
# Type: biochemical
# measurement_conditions: recombinant kinase, 1 µM ATP
measured_metric: IC50

Report IC50 for COc1cc(-c2nc(-c3c[nH]c4ccccc34)c[nH]c2=O)cc(OC)c1OC [Compound 5] > 100 µM

###

# assay_system: UniProtKB O60285
# assay_remarks: 33PanQinase protein kinase activity assay
# Format: biochemical
# measurement_conditions: recombinant kinase, 1 µM ATP
measured_metric: IC50

Report IC50 for `COc1cc(-c2nc(-c3c[nH]c4ccccc34)c[nH]c2=O)cc(OC)c1OC` > 100 µM

###

# assay_system: B-RAF-VE (Homo sapiens, UniProt P15056, V600E)
# assay_remarks: 33PanQinase protein kinase activity assay
# Type: biochemical
# measurement_conditions: recombinant kinase, 1 µM ATP
measured_metric: IC50

Report IC50 for `COc1cc(-c2nc(-c3c[nH]c4ccccc34)c[nH]c2=O)cc(OC)c1OC` > 100 µM

###

# assay_system: INSR (Homo sapiens, UniProt P06213)
# assay_remarks: 33PanQinase protein kinase activity assay
# Assay type: biochemical
# measurement_conditions: recombinant kinase, 1 µM ATP
measured_metric: IC50

Write down measured IC50 (INSR (Homo sapiens, UniProt P06213)) for this molecule. `COc1cc(-c2nc(-c3c[nH]c4ccccc34)c[nH]c2=O)cc(OC)c1OC` > 100 µM

###

# assay_system: FLT3 (Homo sapiens)
# assay_remarks: 33PanQinase protein kinase activity assay
# Type: biochemical
# measurement_conditions: recombinant kinase, 1 µM ATP
measured_metric: IC50 (µM)
Answer format: numeric, µM implied, no suffix.

Report IC50 for `COc1cc(-c2nc(-c3c[nH]c4ccccc34)c[nH]c2=O)cc(OC)c1OC` 36

###

# assay_system: FAK (Homo sapiens, UniProt Q05397)
# assay_remarks: 33PanQinase protein kinase activity assay
# Format: biochemical
# measurement_conditions: recombinant kinase, 1 µM ATP
measured_metric: IC50

Write down measured IC50 (FAK (Homo sapiens, UniProt Q05397)) for this molecule. `COc1cc(-c2nc(-c3c[nH]c4ccccc34)c[nH]c2=O)cc(OC)c1OC` > 100 µM

###

# assay_system: UniProtKB P31749
# Sequence (P31749 whole entry): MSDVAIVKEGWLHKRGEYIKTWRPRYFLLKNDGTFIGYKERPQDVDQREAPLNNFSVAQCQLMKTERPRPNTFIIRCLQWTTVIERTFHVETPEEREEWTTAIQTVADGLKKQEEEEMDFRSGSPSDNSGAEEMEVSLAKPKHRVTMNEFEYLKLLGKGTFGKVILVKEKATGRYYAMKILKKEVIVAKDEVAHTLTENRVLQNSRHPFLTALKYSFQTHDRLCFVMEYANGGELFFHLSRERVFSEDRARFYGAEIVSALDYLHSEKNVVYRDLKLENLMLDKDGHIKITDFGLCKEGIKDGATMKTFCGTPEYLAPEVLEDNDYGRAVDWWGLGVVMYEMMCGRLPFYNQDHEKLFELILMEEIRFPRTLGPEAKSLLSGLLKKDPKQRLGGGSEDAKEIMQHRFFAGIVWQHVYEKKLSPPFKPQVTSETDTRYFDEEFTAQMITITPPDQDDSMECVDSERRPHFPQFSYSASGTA
# assay_remarks: 33PanQinase protein kinase activity assay
# Type: biochemical
# measurement_conditions: recombinant kinase, 1 µM ATP
measured_metric: IC50

Write down measured IC50 (UniProtKB P31749) for this compound. `COc1cc(-c2nc(-c3c[nH]c4ccccc34)c[nH]c2=O)cc(OC)c1OC` > 100 µM

###

# assay_system: MET (Homo sapiens, UniProt P08581)
# Sequence (P08581 25-1390): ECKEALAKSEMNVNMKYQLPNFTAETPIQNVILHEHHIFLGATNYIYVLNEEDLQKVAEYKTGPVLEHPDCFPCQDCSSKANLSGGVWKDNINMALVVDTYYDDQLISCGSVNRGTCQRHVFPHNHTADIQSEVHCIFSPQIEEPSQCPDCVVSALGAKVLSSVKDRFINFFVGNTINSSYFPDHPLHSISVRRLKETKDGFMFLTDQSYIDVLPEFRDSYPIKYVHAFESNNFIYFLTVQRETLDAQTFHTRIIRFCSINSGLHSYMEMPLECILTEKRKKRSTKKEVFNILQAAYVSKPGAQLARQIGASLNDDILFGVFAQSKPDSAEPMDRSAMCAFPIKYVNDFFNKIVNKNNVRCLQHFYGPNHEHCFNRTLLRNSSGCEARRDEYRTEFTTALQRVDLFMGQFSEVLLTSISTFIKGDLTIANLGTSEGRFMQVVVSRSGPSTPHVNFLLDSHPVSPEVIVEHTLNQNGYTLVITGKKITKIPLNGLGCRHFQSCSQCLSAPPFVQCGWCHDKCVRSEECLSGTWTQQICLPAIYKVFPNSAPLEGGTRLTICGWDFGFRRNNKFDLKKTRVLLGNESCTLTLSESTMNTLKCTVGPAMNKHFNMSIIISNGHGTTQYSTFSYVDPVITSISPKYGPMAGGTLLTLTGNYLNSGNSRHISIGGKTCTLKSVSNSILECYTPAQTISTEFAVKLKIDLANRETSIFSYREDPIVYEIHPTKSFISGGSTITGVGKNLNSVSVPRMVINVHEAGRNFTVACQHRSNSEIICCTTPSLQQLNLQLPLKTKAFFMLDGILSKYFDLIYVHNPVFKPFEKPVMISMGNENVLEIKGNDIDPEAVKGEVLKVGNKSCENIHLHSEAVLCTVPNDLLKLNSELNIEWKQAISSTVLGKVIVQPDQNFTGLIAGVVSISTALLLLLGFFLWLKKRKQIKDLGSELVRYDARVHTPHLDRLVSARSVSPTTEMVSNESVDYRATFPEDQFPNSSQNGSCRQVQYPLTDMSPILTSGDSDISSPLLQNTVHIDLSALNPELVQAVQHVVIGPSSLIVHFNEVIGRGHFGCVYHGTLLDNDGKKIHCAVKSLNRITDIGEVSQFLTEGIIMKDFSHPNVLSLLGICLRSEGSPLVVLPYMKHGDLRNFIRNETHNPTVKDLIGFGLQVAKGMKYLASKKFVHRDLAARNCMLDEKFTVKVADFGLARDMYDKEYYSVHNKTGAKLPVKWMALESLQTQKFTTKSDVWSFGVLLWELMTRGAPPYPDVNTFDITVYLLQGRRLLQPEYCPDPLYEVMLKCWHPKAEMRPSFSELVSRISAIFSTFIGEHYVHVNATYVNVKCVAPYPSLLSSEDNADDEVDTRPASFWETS
# assay_remarks: 33PanQinase protein kinase activity assay
# Format: biochemical
# measurement_conditions: recombinant kinase, 1 µM ATP
measured_metric: IC50

Write down measured IC50 (MET (Homo sapiens, UniProt P08581)) for this compound. COc1cc(-c2nc(-c3c[nH]c4ccccc34)c[nH]c2=O)cc(OC)c1OC [Compound 5] > 100 µM

###

# assay_system: PDGFRβ (Homo sapiens)
# Sequence (P09619 33-1106): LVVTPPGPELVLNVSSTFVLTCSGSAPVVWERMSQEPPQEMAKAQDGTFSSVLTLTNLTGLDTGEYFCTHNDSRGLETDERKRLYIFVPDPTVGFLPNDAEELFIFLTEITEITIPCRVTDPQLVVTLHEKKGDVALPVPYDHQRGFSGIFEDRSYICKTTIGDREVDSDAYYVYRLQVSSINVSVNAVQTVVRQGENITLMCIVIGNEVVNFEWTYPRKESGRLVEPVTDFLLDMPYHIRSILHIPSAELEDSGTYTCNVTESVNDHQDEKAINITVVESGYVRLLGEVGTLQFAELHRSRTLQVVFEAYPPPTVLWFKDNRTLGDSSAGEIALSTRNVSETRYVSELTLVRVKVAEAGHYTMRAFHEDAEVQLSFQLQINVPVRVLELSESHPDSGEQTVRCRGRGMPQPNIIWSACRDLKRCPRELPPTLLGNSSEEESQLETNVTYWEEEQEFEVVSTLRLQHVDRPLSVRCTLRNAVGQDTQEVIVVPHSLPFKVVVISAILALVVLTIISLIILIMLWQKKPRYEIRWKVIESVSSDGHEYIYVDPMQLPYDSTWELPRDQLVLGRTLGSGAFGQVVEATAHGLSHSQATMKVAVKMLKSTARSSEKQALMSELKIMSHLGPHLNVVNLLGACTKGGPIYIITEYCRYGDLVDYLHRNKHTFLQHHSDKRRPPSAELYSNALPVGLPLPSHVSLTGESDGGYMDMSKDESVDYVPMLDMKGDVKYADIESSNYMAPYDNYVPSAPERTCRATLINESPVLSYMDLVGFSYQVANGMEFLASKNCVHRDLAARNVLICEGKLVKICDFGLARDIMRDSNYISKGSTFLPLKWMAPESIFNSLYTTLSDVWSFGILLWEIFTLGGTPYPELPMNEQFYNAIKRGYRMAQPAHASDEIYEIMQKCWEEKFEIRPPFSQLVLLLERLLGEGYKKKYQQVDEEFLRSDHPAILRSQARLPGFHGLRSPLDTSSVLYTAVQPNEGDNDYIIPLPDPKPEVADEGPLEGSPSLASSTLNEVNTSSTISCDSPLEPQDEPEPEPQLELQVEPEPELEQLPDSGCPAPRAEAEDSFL
# assay_remarks: 33PanQinase protein kinase activity assay
# Assay type: biochemical
# measurement_conditions: recombinant kinase, 1 µM ATP
Reported IC50 is given for each of the following molecules.
Answer format: numeric, µM implied, no suffix.

Completed entries (count: 3):
structure_as_smiles	test_value
COc1cc(-c2nc(-c3c[nH]c4ccccc34)c[nH]c2=O)cc(OC)c1OC	0.5
COc1ccc(-c2nc(-c3c[nH]c4ccccc34)c[nH]c2=O)cc1OC	1.5
COc1cc(-c2nc(-c3c[nH]c4ccc(O)cc34)c[nH]c2=O)cc(OC)c1OC	0.3

The record that follows has no IC50 shown yet.
Write down measured IC50 (PDGFRβ (Homo sapiens)) for this molecule. `COc1ccc(-c2nc(-c3c[nH]c4ccccc34)c[nH]c2=O)cc1` 19

###

# assay_system: IGF1R (Homo sapiens)
# assay_remarks: 33PanQinase protein kinase activity assay
# Type: biochemical
# measurement_conditions: recombinant kinase, 1 µM ATP
measured_metric: IC50

Report IC50 for `COc1cc(-c2nc(-c3c[nH]c4ccccc34)c[nH]c2=O)cc(OC)c1OC` > 100 µM

###

# assay_system: UniProt P41279
# assay_remarks: 33PanQinase protein kinase activity assay
# Assay type: biochemical
# measurement_conditions: recombinant kinase, 1 µM ATP
# Excerpt: Recombinant protein kinases.
measured_metric: IC50

Report IC50 for `COc1cc(-c2nc(-c3c[nH]c4ccccc34)c[nH]c2=O)cc(OC)c1OC` > 100 µM

###

# assay_system: CK2a1 (Homo sapiens, UniProt P68400)
# assay_remarks: 33PanQinase protein kinase activity assay
# Type: biochemical
# measurement_conditions: recombinant kinase, 1 µM ATP
measured_metric: IC50

Write down measured IC50 (CK2a1 (Homo sapiens, UniProt P68400)) for this molecule. `COc1cc(-c2nc(-c3c[nH]c4ccccc34)c[nH]c2=O)cc(OC)c1OC` > 100 µM

###

# Tested on: HL-60 cells
# assay_remarks: Cell viability assay (CellTiter-Glo)
# Type: cell-based
# measurement_conditions: Homo sapiens, 48 h incubation
measured_metric: IC50 (µM)
Answer format: numeric, µM implied, no suffix.

Report IC50 for COc1cc(-c2nc(-c3c[nH]c4ccc(O)cc34)c[nH]c2=O)cc(OC)c1OC [Compound 8] 30

Cited source: paper PMC3806475
